Origin of the recorded values: ChEMBL document CHEMBL1806380

assay: Ratio of drug level in brain to plasma in Wistar rat at 1 mg/kg, iv after 6 hrs; type: ADME, organism-based; design: dose 1 mg/kg, route intravenous
Metric: Kp at 6 h
Form field (numeric): enter value without unit.

Request: Determine from records and report Kp at 6 h for CN1CC(Cl)=C(c2cn(S(=O)(=O)c3ccccc3)c3ccccc23)C1
Result: 1.79

* * *

assay: AUCt in Wistar rat at 10 mg/kg, iv; assay type: ADME, organism-based; design: dose 10 mg/kg, route intravenous; conditions: plasma
Metric: AUC(0-t) (ng·h/mL)
Number only, in ng·h/mL; omit the unit.

Request: Tell me its AUC(0-t) given CN1CC(Cl)=C(c2cn(S(=O)(=O)c3ccccc3)c3ccccc23)C1 as the entry.
Result: 2320

* * *

molecular target: 5-hydroxytryptamine receptor 6 (Homo sapiens) (UniProt P50406); experiment: Binding affinity to human recombinant 5HT6 receptor expressed in CHO cells co-expressing pCRE-Luc gene assessed as modulation of serotonin-induced intracellular cAMP level after 4 hrs by luciferase based luminescence assay; format: cell-based
Sequence (P50406 whole entry): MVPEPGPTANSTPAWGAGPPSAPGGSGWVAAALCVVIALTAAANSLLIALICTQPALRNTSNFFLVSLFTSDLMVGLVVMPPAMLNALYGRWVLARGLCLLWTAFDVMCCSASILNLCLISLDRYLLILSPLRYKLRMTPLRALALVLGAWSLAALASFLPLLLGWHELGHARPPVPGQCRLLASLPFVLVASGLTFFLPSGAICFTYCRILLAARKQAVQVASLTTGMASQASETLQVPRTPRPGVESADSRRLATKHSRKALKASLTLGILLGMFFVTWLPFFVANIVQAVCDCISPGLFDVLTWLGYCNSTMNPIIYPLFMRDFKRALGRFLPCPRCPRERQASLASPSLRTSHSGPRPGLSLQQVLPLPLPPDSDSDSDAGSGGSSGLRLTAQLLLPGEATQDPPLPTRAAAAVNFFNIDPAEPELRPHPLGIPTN
Metric: log10(Kb) (log10 of the value in nM)
# values: log10(Kb), units nM

Request: Give recorded log10(Kb). COc1ccc2c(c1)c(C1=C(Cl)CN(C)C1)cn2S(=O)(=O)c1ccccc1Br
Result: -0.52

Request: Using known records, supply log10(Kb) for CCN1CCC(c2cn(S(=O)(=O)c3ccccc3Br)c3ccc(OC)cc23)C1 (racemic)
Result: 0.11

Request: Write down log10(Kb) measured for item COc1ccc2c(c1)c(C1CCN(C)C1)cn2S(=O)(=O)c1ccccc1 (racemic)
Result: -0.05

Request: Identify log10(Kb) associated with the molecule CN1CC(Cl)=C(c2cn(S(=O)(=O)c3ccccc3)c3ccccc23)C1
Result: -1.00

Request: Using the record for CCN1CC(Cl)=C(c2cn(S(=O)(=O)c3ccc(F)cc3)c3ccccc23)C1 , state its measured log10(Kb).
Result: 0.76

* * *

assay: Half life in Wistar rat at 10 mg/kg, po; type: ADME, organism-based; set-up: dose 10 mg/kg, route oral; settings: in vivo
Metric: half-life (min)
Kindly provide the numeric value in min only, without the unit symbol.

Request: Annotate the compound CN1CC(Cl)=C(c2cn(S(=O)(=O)c3ccccc3)c3ccccc23)C1 with its measured half-life.
Result: 225

* * *

assay: Oral bioavailability in Wistar rat at 10 mg/kg; assay type: ADME, organism-based; conditions: in vivo
Metric: bioavailability (%)
Give the value, in units of %, as a plain number.

Request: Look up and report measured bioavailability for this entry: CN1CC(Cl)=C(c2cn(S(=O)(=O)c3ccccc3)c3ccccc23)C1
Result: 12

* * *

assay: AUCt in Wistar rat at 10 mg/kg, po; assay type: ADME, organism-based; design: dose 10 mg/kg, route oral; conditions: plasma
Metric: AUC(0-t) (ng·h/mL)
Express your answer in ng·h/mL, writing the number without its unit.

Request: Give the measured AUC(0-t) for CN1CC(Cl)=C(c2cn(S(=O)(=O)c3ccccc3)c3ccccc23)C1
Result: 268

* * *

I'd appreciate it if you could supply metabolised at 0.5 h values for the items below.
assay: Metabolic stability in rat liver microsomes assessed as drug metabolized level after 30 mins; type: ADME, Microsome; conditions: read-out: Activity
Report as a plain number; the unit % is understood.

Request: Hello, please tell me recorded metabolised at 0.5 h for this one: COc1ccc2c(c1)c(C1=C(Cl)CN(C)C1)cn2S(=O)(=O)c1ccccc1
Result: 96

Request: Please list metabolised at 0.5 h recorded for the compound CN1CC(Cl)=C(c2cn(S(=O)(=O)c3ccccc3)c3ccccc23)C1
Result: 70
